Parameter: TGI. Scope: all listed entries.
# System: OVCAR-4 ovarian
# Procedure details: NCI tumour cell line growth inhibition, 48 h

Solved entries (count: 3):
COc1cccc(-c2cc3c4c(nc5ccccc53)C(=O)c3cccnc3-c4n2)c1
8.5 µM
c1ccc([I+]c2ccccc2)cc1
> 100 µM
CN(C)C(=O)c1ccc([N+](=O)[O-])cc1
> 100 µM

Answer with reported TGI of `Cc1ccc(N(C)S(=O)(=O)c2ccccc2[N+](=O)[O-])cc1`
> 100 µM

Fill in reported TGI for this entry: `CNC1(C(=O)O)CC1`
> 100 µM

Please look at this compound and report its TGI: `COc1ccccc1CNCCCN1C(=O)c2ccc3c4c(ccc(c24)C1=O)C(=O)N(CCCN)C3=O`
0.843 µM
